The measured values listed here are drawn from the supplement of paper PMC11061612.

tested on: NUGC-3 (Gastric Carcinoma); experiment: Bliss excess, mean over the matrix (fraction); higher = more synergy
quantity kind: Bliss excess

{"molecule": "Cc1cc2ncnn2cc1Nc1ncc2c(n1)n(C1CCOCC1)c(=O)n2C [AZD7648] + C=CCn1c(=O)c2cnc(Nc3ccc(N4CCN(C)CC4)cc3)nc2n1-c1cccc(C(C)(C)O)n1 [AZD1775] (first compound max 10 µM, partner max 1 µM)", "result": 0.0165}
{"molecule": "CCc1c2c(nc3ccc(O)cc13)-c1cc3c(c(=O)n1C2)COC(=O)[C@]3(O)CC [SN-38] + CN(C)CCCOc1ccc(-c2ccc3ncc4c(c3c2)n(C2CCOCC2)c(=O)n4C)cn1 [AZD0156] (first compound max 0.3 µM, 7x7, partner max 1 µM)", "result": 0.0085}

* * *

In this section we review reported combination Emax values for a set of molecules.
system: HOP-62 (Lung Adenocarcinoma); assay: combination Emax (second highest fraction inhibited in the dose matrix, 72 h); higher = more inhibition; extreme values may be limits of the assay

{"molecule": "CN(CCO)CC[C@H](CSc1ccccc1)Nc1ccc(S(=O)(=O)NC(=O)c2ccc(N3CCC([C@@H](O)c4ccccc4-c4ccc(Cl)cc4)CC3)cc2)cc1S(=O)(=O)C(F)(F)F [AZD4320] + CN(C)CCCOc1ccc(-c2ccc3ncc4c(c3c2)n(C2CCOCC2)c(=O)n4C)cn1 [AZD0156] (first compound max 1 µM, 7x7, partner max 1 µM)", "combination Emax": 0.194}
{"molecule": "COc1cc2c(cc1OCCCCCOc1cc3c(cc1OC)C(=O)N1C=C(C)C[C@H]1C=N3)N=C[C@@H]1CC(C)=CN1C2=O [SG3199] + O=C(c1cc(Cc2n[nH]c(=O)c3ccccc23)ccc1F)N1CCN(C(=O)C2CC2)CC1 [Olaparib] (first compound max 0.001 µM, 7x7, partner max 10 µM)", "combination Emax": 0.118}
{"molecule": "CCN(CCO)CCCOc1ccc2c(Nc3cc(CC(=O)Nc4cccc(F)c4)[nH]n3)ncnc2c1 [AZD2811] + O=C(c1cc(Cc2n[nH]c(=O)c3ccccc23)ccc1F)N1CCN(C(=O)C2CC2)CC1 [Olaparib] (first compound max 1 µM, 7x7, partner max 10 µM)", "combination Emax": 0.155}

* * *

test system: PWR-1E (Non-Cancerous); test: Bliss excess, mean over the matrix (fraction); higher = more synergy
Tag: 1 if measured Bliss excess is not below -0.0005, -1 if it is.

{"compound": "CN(CCO)CC[C@H](CSc1ccccc1)Nc1ccc(S(=O)(=O)NC(=O)c2ccc(N3CCC([C@@H](O)c4ccccc4-c4ccc(Cl)cc4)CC3)cc2)cc1S(=O)(=O)C(F)(F)F [AZD4320] + C1CN(CCC1(C(=O)N[C@@H](CCO)C2=CC=C(C=C2)Cl)N)C3=NC=NC4=C3C=CN4 [Capivasertib] (first compound max 1 µM, 7x7, partner max 3 µM)", "discrete label": -1}
{"compound": "Cc1c2c(nn1C)CSCc1cc(n(C)n1)CSc1cc(c3ccccc3c1)OCCCc1c(C(=O)O)n(C)c3c-2c(Cl)ccc13 [AZD5991] + CCN(CCO)CCCOc1ccc2c(Nc3cc(CC(=O)Nc4cccc(F)c4)[nH]n3)ncnc2c1 [AZD2811] (first compound max 1 µM, 7x7, partner max 1 µM)", "discrete label": 1}
{"compound": "Cc1cc2ncnn2cc1Nc1ncc2c(n1)n(C1CCOCC1)c(=O)n2C [AZD7648] + CCN(CCO)CCCOc1ccc2c(Nc3cc(CC(=O)Nc4cccc(F)c4)[nH]n3)ncnc2c1 [AZD2811] (first compound max 10 µM, 7x7, partner max 1 µM)", "discrete label": 1}
{"compound": "CN(CCO)CC[C@H](CSc1ccccc1)Nc1ccc(S(=O)(=O)NC(=O)c2ccc(N3CCC([C@@H](O)c4ccccc4-c4ccc(Cl)cc4)CC3)cc2)cc1S(=O)(=O)C(F)(F)F [AZD4320] + C[C@@H]1COCCN1C2=NC(=NC(=C2)C3(CC3)[S@](=N)(=O)C)C4=C5C=CNC5=NC=C4 [AZD6738] (first compound max 1 µM, 7x7, partner max 10 µM)", "discrete label": -1}
{"compound": "CN(CCO)CC[C@H](CSc1ccccc1)Nc1ccc(S(=O)(=O)NC(=O)c2ccc(N3CCC([C@@H](O)c4ccccc4-c4ccc(Cl)cc4)CC3)cc2)cc1S(=O)(=O)C(F)(F)F [AZD4320] + CN(C)CCCOc1ccc(-c2ccc3ncc4c(c3c2)n(C2CCOCC2)c(=O)n4C)cn1 [AZD0156] (first compound max 1 µM, 7x7, partner max 1 µM)", "discrete label": -1}

* * *

system: UACC-62 (Melanoma); assay: Bliss excess, mean over the matrix (fraction); higher = more synergy

{"molecule": "N#Cc1cnc(Nc2cc(NC[C@H]3CNCCO3)c(C(F)(F)F)cn2)cn1 [SRA737] + Nc1ccn([C@@H]2O[C@H](CO)[C@@H](O)C2(F)F)c(=O)n1 [Gemcitabine] (first compound max 10 µM, 7x7, partner max 0.3 µM)", "Bliss excess": 0.019}
{"molecule": "Cc1cc2ncnn2cc1Nc1ncc2c(n1)n(C1CCOCC1)c(=O)n2C [AZD7648] + C[C@@H]1COCCN1C2=NC(=NC(=C2)C3(CC3)[S@](=N)(=O)C)C4=C5C=CNC5=NC=C4 [AZD6738] (first compound max 10 µM, 7x7, partner max 10 µM)", "Bliss excess": 0.0529}
{"molecule": "CN(CCO)CC[C@H](CSc1ccccc1)Nc1ccc(S(=O)(=O)NC(=O)c2ccc(N3CCC([C@@H](O)c4ccccc4-c4ccc(Cl)cc4)CC3)cc2)cc1S(=O)(=O)C(F)(F)F [AZD4320] + Cn1cnc2c(F)c(Nc3ccc(Br)cc3Cl)c(C(=O)NOCCO)cc21 [Selumetinib] (first compound max 1 µM, 7x7, partner max 3 µM)", "Bliss excess": -0.0035}
{"molecule": "CCc1c2c(nc3ccc(O)cc13)-c1cc3c(c(=O)n1C2)COC(=O)[C@]3(O)CC [SN-38] + CN(C)CCCOc1ccc(-c2ccc3ncc4c(c3c2)n(C2CCOCC2)c(=O)n4C)cn1 [AZD0156] (first compound max 0.3 µM, 7x7, partner max 1 µM)", "Bliss excess": 0.0077}

* * *

In this section we review reported Bliss excess values for a set of compounds.
test system: PANC-04-03 (Pancreatic Carcinoma); test: Bliss excess, mean over the matrix (fraction); higher = more synergy

{"compound": "COc1cccc2c1C(=O)c1c(O)c3c(c(O)c1C2=O)C[C@@](O)(C(=O)CO)C[C@@H]3O[C@H]1C[C@H](N)[C@H](O)[C@H](C)O1 [Doxorubicin] + Cc1cc2ncnn2cc1Nc1ncc2c(n1)n(C1CCOCC1)c(=O)n2C [AZD7648] (first compound max 1 µM, 7x7, partner max 10 µM)", "Bliss excess": -0.0394}
{"compound": "Cn1cnc2c(F)c(Nc3ccc(Br)cc3Cl)c(C(=O)NOCCO)cc21 [Selumetinib] + CCN(CCO)CCCOc1ccc2c(Nc3cc(CC(=O)Nc4cccc(F)c4)[nH]n3)ncnc2c1 [AZD2811] (first compound max 10 µM, 7x7, partner max 1 µM)", "Bliss excess": -0.0339}

* * *

system: LU-65 (Non-Small Cell Lung Carcinoma); test: Bliss excess, mean over the matrix (fraction); higher = more synergy

{"compound": "Cc1cc2ncnn2cc1Nc1ncc2c(n1)n(C1CCOCC1)c(=O)n2C [AZD7648] + COc1cc([C@@H]2c3cc4c(cc3[C@@H](O[C@@H]3O[C@@H]5CO[C@@H](C)O[C@H]5[C@H](O)[C@H]3O)[C@H]3COC(=O)[C@H]23)OCO4)cc(OC)c1O [Etoposide] (first compound max 10 µM, 7x7, partner max 10 µM)", "tested system": "LU-65 (Non-Small Cell Lung Carcinoma)", "Bliss excess": 0.0212}
{"compound": "COc1cccc(OCCCN)c1-c1cc(Nc2cnc(C#N)cn2)n[nH]1 [Prexasertib] + Cc1cc2ncnn2cc1Nc1ncc2c(n1)n(C1CCOCC1)c(=O)n2C [AZD7648] (first compound max 1 µM, 7x7, partner max 10 µM)", "tested system": "LU-65 (Non-Small Cell Lung Carcinoma)", "Bliss excess": -0.0099}
{"compound": "CN(CCO)CC[C@H](CSc1ccccc1)Nc1ccc(S(=O)(=O)NC(=O)c2ccc(N3CCC([C@@H](O)c4ccccc4-c4ccc(Cl)cc4)CC3)cc2)cc1S(=O)(=O)C(F)(F)F [AZD4320] + CCN(CCO)CCCOc1ccc2c(Nc3cc(CC(=O)Nc4cccc(F)c4)[nH]n3)ncnc2c1 [AZD2811] (first compound max 1 µM, 7x7, partner max 1 µM)", "tested system": "LU-65 (Non-Small Cell Lung Carcinoma)", "Bliss excess": -0.0437}
{"compound": "Cc1c2c(nn1C)CSCc1cc(n(C)n1)CSc1cc(c3ccccc3c1)OCCCc1c(C(=O)O)n(C)c3c-2c(Cl)ccc13 [AZD5991] + C=CCn1c(=O)c2cnc(Nc3ccc(N4CCN(C)CC4)cc3)nc2n1-c1cccc(C(C)(C)O)n1 [AZD1775] (first compound max 1 µM, partner max 1 µM)", "tested system": "LU-65 (Non-Small Cell Lung Carcinoma)", "Bliss excess": -0.118}
